Source: ChEMBL document CHEMBL3396959

system: HEK293; assay: Toxicity against human TLR8 expressing HEK293 cells after 24 hrs by live/dead fixable aqua staining method; type: cell-based; conditions: hek293, 24 h
measurement_type: Activity

compound | experimental_target | Activity
CCCCOc1nc(N)c2[nH]c(=O)n(CCC3CCNCC3)c2n1.Cl | HEK293 | Non-toxic
CCCCOc1nc(N)c2[nH]c(=O)n(CC3CCNCC3)c2n1.Cl | HEK293 | Non-toxic
CCCCOc1nc(N)c2[nH]c(=O)n(CCCCCC3CCNCC3)c2n1.Cl | HEK293 | Toxic
CCCCOc1nc(N)c2[nH]c(=O)n(CCCC3CCNCC3)c2n1.Cl | HEK293 | Non-toxic

(Q) Return Activity (reported value) for this compound: CCCCOc1nc(N)c2[nH]c(=O)n(CCCCC3CCNCC3)c2n1.Cl
(A) Toxic
